Biological target: N-type calcium channel (α1B (Cav2.2), β3 and α2δ subunits) (Homo sapiens)
Experiment: Functional Assay: Antagonism of N-Type Calcium Channel (FDSS calcium mobilization, KCl depolarization)
Type: cell-based
Settings: HEK cell line, 50 mM KCl depolarization, six-point concentration-response; read-out: FDSS IC50
// map IC50 onto a label; ranges lower bin = under 20 nM, middle bin = from 20 nM up to 90 nM, upper bin = 90 nM and over

INSERT INTO measurements (compound, assay_target, label_value) VALUES
  ('COc1ccccc1-n1nc2c(c1-c1ccc(Cl)cc1)CC1(C2)O[C@H](C)[C@@H](C)O1', 'N-type calcium channel (α1B (Cav2.2), β3 and α2δ subunits) (Homo sapiens)', 'lower bin'),
  ('CC(C)(C)OC(=O)NCCC1Cc2nn(-c3ccccc3C(F)(F)F)c(-c3ccc(Cl)cc3)c2C1 (stereo not shown)', 'N-type calcium channel (α1B (Cav2.2), β3 and α2δ subunits) (Homo sapiens)', 'upper bin'),
  ('O=C(OC1Cc2nn(-c3ccccc3OC(F)(F)F)c(-c3ccc(Cl)cc3)c2C1)N1CCOCC1 (stereo not shown)', 'N-type calcium channel (α1B (Cav2.2), β3 and α2δ subunits) (Homo sapiens)', 'upper bin'),
  ('COc1ccccc1-n1nc2c(c1-c1ccc(Cl)cc1)CC(CCOC(=O)N1CCOCC1)C2 (stereo not shown)', 'N-type calcium channel (α1B (Cav2.2), β3 and α2δ subunits) (Homo sapiens)', 'middle bin'),
  ('COc1ccccc1-n1nc2c(c1-c1ccc(N(C)C)cc1)CC1(C2)OC(C)(C)C(C)(C)O1', 'N-type calcium channel (α1B (Cav2.2), β3 and α2δ subunits) (Homo sapiens)', 'lower bin'),
  ('CCC(CC)C(=O)O[C@H]1Cc2nn(-c3ccccc3OC)c(-c3ccc(Cl)cc3)c2C1', 'N-type calcium channel (α1B (Cav2.2), β3 and α2δ subunits) (Homo sapiens)', 'lower bin'),
  ('COc1ccccc1-n1nc2c(c1-c1ccc(C)nc1)CC1(C2)OC(C)(C)C(C)(C)O1', 'N-type calcium channel (α1B (Cav2.2), β3 and α2δ subunits) (Homo sapiens)', 'lower bin'),
  ('CCC(CC)C(=O)O[C@@H]1Cc2nn(-c3ccccc3OC)c(-c3ccc(Cl)cc3)c2C1', 'N-type calcium channel (α1B (Cav2.2), β3 and α2δ subunits) (Homo sapiens)', 'lower bin'),
  ('CCc1ccccc1-n1nc2c(c1-c1ccc(Cl)cc1)CC(CNS(C)(=O)=O)C2 (stereo not shown)', 'N-type calcium channel (α1B (Cav2.2), β3 and α2δ subunits) (Homo sapiens)', 'upper bin'),
  ('COc1ccccc1-n1nc2c(c1-c1ccc(Cl)cc1)CC(NS(=O)(=O)C(C)C)C2 (stereo not shown)', 'N-type calcium channel (α1B (Cav2.2), β3 and α2δ subunits) (Homo sapiens)', 'lower bin'),
  ('COc1ccccc1-n1nc2c(c1-c1ccc(Cl)cc1)C[C@H](OC1CCCC1)C2', 'N-type calcium channel (α1B (Cav2.2), β3 and α2δ subunits) (Homo sapiens)', 'middle bin'),
  ('COc1ccccc1-n1nc2c(c1-c1ccc(C#N)cc1)C[C@H](n1cc(COC(C)=O)nn1)C2', 'N-type calcium channel (α1B (Cav2.2), β3 and α2δ subunits) (Homo sapiens)', 'upper bin'),
  ('COc1ccccc1-n1nc2c(c1-c1ccc(Cl)cc1)CC(N1CCC(F)(F)C1)C2 (stereo not shown)', 'N-type calcium channel (α1B (Cav2.2), β3 and α2δ subunits) (Homo sapiens)', 'lower bin'),
  ('COc1ccccc1-n1nc2c(c1-c1ccc(Cl)cc1)CC(C1CNc3ccccc3C1)C2 (stereo not shown)', 'N-type calcium channel (α1B (Cav2.2), β3 and α2δ subunits) (Homo sapiens)', 'upper bin'),
  ('COc1ccccc1-n1nc2c(c1-c1ccc(Cl)cc1)CC(CCNC(=O)OC(C)(C)C)C2 (stereo not shown)', 'N-type calcium channel (α1B (Cav2.2), β3 and α2δ subunits) (Homo sapiens)', 'middle bin');

###

Target: N-type calcium channel (α1B (Cav2.2), β3 and α2δ subunits) (Homo sapiens)
Test: Functional Assay: Antagonism of N-Type Calcium Channel (FDSS calcium mobilization, KCl depolarization)
Assay type: cell-based
Details: 0.33 μM
readout type: inhibition at 0.33 µM (%)

INSERT INTO assay_data (compound, measure_unit, numeric_value) VALUES
  ('COc1ccccc1-n1nc2c(c1-c1ccc(Cl)cc1)CC(N1CC(C)OC(C)C1)C2 (centres unmarked)', '%', 77),
  ('COc1ccccc1-n1nc2c(c1-c1ccc(Cl)cc1)C[C@H](OC(=O)C1CCCCC1)C2', '%', 78),
  ('COc1ccccc1-n1nc2c(c1-c1ccc(Cl)cc1)CC1(C2)OCCCO1', '%', 86),
  ('CCC(CC)C(=O)O[C@@H]1Cc2nn(-c3ccccc3OC)c(-c3ccc(Cl)cc3)c2C1', '%', 96),
  ('CCc1nc(CC)n([C@@H]2Cc3nn(-c4ccccc4OC)c(-c4ccc(C#N)cc4)c3C2)c1CC', '%', 49),
  ('COc1ccccc1-n1nc2c(c1-c1ccc(Cl)cc1)CC(c1ccc(C3CC3)nc1)C2 (centres unmarked)', '%', 81),
  ('CCC1(CC)CCN(C2Cc3nn(-c4ccccc4OC)c(-c4ccc(Cl)cc4)c3C2)C1 (centres unmarked)', '%', 76),
  ('COc1ccccc1-n1nc2c(c1-c1ccc(Cl)cc1)CC(C1CCCCC1)C2 (centres unmarked)', '%', 61);

###

Reported IC50 values follow for various compounds
Molecular target: N-type calcium channel (α1B (Cav2.2), β3 and α2δ subunits) (Homo sapiens, UniProt Q00975)
Sequence (Q00975 whole entry): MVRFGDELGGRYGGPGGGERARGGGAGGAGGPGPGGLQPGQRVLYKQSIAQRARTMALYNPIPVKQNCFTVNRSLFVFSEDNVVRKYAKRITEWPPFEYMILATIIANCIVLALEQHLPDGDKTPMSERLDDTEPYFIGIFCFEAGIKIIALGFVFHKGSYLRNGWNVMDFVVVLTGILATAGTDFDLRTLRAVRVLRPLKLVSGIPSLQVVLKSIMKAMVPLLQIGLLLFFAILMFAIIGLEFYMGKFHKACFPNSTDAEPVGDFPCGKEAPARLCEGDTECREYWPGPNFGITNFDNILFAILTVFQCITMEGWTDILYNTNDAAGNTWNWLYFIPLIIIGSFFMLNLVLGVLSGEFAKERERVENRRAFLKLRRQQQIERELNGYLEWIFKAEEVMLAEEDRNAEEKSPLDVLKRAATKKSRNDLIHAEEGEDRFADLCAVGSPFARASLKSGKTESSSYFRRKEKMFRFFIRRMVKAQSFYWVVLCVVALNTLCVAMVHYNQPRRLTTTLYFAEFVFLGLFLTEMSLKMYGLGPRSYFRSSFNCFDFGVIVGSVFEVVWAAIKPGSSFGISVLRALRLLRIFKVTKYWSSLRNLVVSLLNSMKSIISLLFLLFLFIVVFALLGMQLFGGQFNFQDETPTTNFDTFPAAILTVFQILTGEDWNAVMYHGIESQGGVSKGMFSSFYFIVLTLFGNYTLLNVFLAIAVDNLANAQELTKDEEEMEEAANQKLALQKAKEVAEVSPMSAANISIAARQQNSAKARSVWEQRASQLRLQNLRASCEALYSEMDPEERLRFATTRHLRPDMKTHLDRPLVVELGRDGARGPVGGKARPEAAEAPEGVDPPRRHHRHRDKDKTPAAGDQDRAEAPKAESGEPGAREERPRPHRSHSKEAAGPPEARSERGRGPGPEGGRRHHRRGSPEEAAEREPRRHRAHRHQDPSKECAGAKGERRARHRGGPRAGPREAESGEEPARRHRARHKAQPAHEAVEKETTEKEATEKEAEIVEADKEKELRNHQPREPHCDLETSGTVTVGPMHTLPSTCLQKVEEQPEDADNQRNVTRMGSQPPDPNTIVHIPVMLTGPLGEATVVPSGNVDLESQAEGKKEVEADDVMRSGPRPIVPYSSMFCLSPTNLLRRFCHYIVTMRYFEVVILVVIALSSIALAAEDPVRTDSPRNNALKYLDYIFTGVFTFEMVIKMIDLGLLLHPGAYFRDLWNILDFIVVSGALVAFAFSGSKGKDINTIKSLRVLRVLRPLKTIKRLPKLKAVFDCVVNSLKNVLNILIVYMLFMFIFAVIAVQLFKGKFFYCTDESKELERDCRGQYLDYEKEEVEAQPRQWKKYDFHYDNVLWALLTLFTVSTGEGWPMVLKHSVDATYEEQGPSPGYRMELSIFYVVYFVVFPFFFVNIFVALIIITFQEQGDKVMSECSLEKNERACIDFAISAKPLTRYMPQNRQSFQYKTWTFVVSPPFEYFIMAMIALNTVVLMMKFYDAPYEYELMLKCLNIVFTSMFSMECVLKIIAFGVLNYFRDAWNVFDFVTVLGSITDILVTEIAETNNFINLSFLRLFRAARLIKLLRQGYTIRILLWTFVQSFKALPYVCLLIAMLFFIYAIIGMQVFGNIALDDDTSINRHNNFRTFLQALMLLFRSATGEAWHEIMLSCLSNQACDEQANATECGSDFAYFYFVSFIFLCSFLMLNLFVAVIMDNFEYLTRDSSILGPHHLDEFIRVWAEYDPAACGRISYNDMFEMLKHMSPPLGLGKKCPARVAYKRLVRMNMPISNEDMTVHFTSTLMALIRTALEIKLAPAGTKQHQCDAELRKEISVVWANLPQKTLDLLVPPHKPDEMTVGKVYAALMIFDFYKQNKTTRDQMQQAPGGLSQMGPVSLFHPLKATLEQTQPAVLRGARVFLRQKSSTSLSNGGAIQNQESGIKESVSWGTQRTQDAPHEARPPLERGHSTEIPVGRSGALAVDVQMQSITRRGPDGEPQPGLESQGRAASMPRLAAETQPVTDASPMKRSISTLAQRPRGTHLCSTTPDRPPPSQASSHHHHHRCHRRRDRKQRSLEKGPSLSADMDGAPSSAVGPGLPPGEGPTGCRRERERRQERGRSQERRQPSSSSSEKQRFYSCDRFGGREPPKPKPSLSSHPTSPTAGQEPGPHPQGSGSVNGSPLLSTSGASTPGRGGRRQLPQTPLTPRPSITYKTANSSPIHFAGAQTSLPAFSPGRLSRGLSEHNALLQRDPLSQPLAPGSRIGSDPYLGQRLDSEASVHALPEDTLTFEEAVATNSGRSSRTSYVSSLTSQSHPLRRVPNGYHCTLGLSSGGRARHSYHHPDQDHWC
Sequence (P54284 whole entry partner): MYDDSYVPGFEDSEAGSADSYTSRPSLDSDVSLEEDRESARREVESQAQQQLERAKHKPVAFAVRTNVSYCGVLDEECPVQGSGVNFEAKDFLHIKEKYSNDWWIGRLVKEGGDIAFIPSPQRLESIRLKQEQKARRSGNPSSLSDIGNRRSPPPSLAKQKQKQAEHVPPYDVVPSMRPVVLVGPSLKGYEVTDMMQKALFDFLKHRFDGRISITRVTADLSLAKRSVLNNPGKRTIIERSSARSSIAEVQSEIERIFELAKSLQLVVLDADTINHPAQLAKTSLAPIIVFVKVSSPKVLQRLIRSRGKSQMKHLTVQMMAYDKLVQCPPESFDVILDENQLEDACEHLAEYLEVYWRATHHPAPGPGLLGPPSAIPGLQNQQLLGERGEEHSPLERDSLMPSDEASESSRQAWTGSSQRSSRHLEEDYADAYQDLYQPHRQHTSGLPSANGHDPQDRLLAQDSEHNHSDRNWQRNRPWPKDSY
Sequence (P54289 25-946 partner limits assumed): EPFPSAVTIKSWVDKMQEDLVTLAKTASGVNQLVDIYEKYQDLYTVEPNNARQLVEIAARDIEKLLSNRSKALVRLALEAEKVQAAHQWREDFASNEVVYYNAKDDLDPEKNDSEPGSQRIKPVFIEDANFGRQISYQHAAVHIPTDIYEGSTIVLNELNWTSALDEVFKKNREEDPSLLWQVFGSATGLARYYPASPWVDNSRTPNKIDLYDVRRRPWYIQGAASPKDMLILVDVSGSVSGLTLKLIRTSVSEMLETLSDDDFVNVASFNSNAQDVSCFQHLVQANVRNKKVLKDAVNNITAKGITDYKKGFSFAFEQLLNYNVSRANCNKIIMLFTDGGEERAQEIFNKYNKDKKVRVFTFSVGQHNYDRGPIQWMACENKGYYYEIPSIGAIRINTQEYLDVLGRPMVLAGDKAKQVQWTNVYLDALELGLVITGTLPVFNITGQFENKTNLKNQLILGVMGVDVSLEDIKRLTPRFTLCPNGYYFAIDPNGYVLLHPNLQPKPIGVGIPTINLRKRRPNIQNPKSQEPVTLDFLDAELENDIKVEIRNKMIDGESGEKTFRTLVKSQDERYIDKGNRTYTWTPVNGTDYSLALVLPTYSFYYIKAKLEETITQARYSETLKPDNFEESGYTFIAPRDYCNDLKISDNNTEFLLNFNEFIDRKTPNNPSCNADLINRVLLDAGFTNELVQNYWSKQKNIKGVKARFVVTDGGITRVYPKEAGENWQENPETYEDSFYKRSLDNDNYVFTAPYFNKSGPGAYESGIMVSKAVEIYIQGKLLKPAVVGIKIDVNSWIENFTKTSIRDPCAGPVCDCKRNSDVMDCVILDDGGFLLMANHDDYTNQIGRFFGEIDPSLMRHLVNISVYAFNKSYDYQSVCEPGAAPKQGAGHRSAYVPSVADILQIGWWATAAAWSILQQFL
Sequence (P54289 947-1103 partner limits assumed): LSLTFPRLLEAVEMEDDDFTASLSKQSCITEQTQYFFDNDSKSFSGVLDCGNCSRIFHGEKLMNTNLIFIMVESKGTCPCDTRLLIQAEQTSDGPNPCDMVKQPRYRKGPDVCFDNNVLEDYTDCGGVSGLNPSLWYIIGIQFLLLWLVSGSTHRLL
Assay: Functional Assay: Antagonism of N-Type Calcium Channel (FDSS calcium mobilization, KCl depolarization)
Assay type: cell-based
Settings: HEK cell line, 50 mM KCl depolarization, six-point concentration-response; read-out: FDSS IC50
readout type: IC50 (µM)

INSERT INTO measurements (compound, readout_type, numeric_value) VALUES
  ('CCOc1ccccc1-n1nc2c(c1-c1ccc(Cl)cc1)CC(N(C)S(=O)(=O)N(C)C)C2 (stereo not shown)', 'IC50', 0.0012),
  ('CCOc1ccccc1-n1nc2c(c1-c1ccc(Cl)cc1)CC(N1C(=O)CCC1=O)C2 (stereo not shown)', 'IC50', 0.0075),
  ('COc1ccccc1-n1nc2c(c1-c1ccc(Cl)cc1)C[C@@H](Oc1ccccn1)C2', 'IC50', 0.098),
  ('CCc1nccn1[C@@H]1Cc2nn(-c3ccccc3OC)c(-c3ccc(C#N)cc3)c2C1', 'IC50', 0.2);

###

Reported inhibition at 0.33 µM values follow for various compounds
Biological target: N-type calcium channel (α1B (Cav2.2), β3 and α2δ subunits) (Homo sapiens, UniProt Q00975)
Assay: Functional Assay: Antagonism of N-Type Calcium Channel (FDSS calcium mobilization, KCl depolarization)
Format: cell-based
Settings: 0.33 μM
Method: A stable cell line (HEK parent) co-expressing the α1B (Cav2.2), β3 and α2δ subunits of the N-type calcium channel subunits was used. […] Calcium mobilization responses to KCl depolarization were evaluated by measuring the intensity of calcium-mediated fluorescent signal in the presence of BD Calcium Assay Dye (BD Biosciences, Franklin Lakes, N.J., U.S.A.), utilizing a Functional Drug Screening System (FDSS) by Hamamatsu Corporation (Bridgewater, N.J. U.S.A.). […]
readout type: inhibition at 0.33 µM (%)

INSERT INTO results (compound, numeric_value) VALUES
  ('COc1ccccc1-n1nc2c(c1-c1ccc(Cl)cc1)CC1(C2)O[C@H](C)C[C@@H](C)O1 (some centres unmarked)', 101),
  ('COc1ccccc1-n1nc2c(c1-c1ccc(Cl)cc1)C[C@H](OC(=O)C1CCC1)C2', 89),
  ('COc1ccccc1-n1nc2c(c1-c1ccc(Cl)cc1)CC(N1CCC(C)CC1)C2 (centres unmarked)', 75),
  ('COc1ccccc1-n1nc2c(c1-c1ccc(Cl)cc1)CC(c1ccc(OC(C)C)nc1)C2 (centres unmarked)', 62),
  ('COC(=O)c1cn([C@@H]2Cc3nn(-c4ccccc4OC)c(-c4ccc(C#N)cc4)c3C2)nn1', 70),
  ('COc1ccccc1-n1nc2c(c1-c1ccc(Cl)cc1)C[C@H](Oc1cccnc1)C2', 76),
  ('COc1ccccc1-n1nc2c(c1-c1ccc(C#N)cc1)CC(CC1CCCCC1)C2 (centres unmarked)', 64),
  ('CCOc1ccc(C2Cc3nn(-c4ccccc4OC)c(-c4ccc(Cl)cc4)c3C2)cn1 (centres unmarked)', 61);

###

Biological target: N-type calcium channel (α1B (Cav2.2), β3 and α2δ subunits) (Homo sapiens, UniProt Q00975)
Test: Functional Assay: Antagonism of N-Type Calcium Channel (FDSS calcium mobilization, KCl depolarization)
Format: cell-based
Conditions: 1 μM
readout type: inhibition at 1 µM (%)

INSERT INTO assay_data (molecule, assay_target, readout_type, numeric_value) VALUES
  ('C=CCC1Cc2nn(-c3ccccc3OC)c(-c3ccc(Cl)cc3)c2C1 (stereo not shown) [Compound 4]', 'N-type calcium channel (α1B (Cav2.2), β3 and α2δ subunits) (Homo sapiens, UniProt Q00975)', 'inhibition at 1 µM', 81),
  ('COc1ccccc1-n1nc2c(c1-c1ccc(Cl)cc1)CC(O)C2 (stereo not shown) [Compound 26]', 'N-type calcium channel (α1B (Cav2.2), β3 and α2δ subunits) (Homo sapiens, UniProt Q00975)', 'inhibition at 1 µM', 62),
  ('OC1Cc2nn(-c3ccccc3OC(F)(F)F)c(-c3ccc(Cl)cc3)c2C1 (stereo not shown) [Compound 25]', 'N-type calcium channel (α1B (Cav2.2), β3 and α2δ subunits) (Homo sapiens, UniProt Q00975)', 'inhibition at 1 µM', 61),
  ('CS(=O)(=O)NCCC1Cc2nn(-c3ccccc3C(F)(F)F)c(-c3ccc(Cl)cc3)c2C1 (stereo not shown) [Compound 21]', 'N-type calcium channel (α1B (Cav2.2), β3 and α2δ subunits) (Homo sapiens, UniProt Q00975)', 'inhibition at 1 µM', 65);
